Origin of the recorded values: PubChem BioAssay (NCI)

Test system: SNB-19 CNS
method_notes: NCI tumour cell line growth inhibition, 48 h
Where a SMILES comes first, the peptide text is derived from it. Bridges are numbered along the chain shown (N, C = ends). [ ]: non-standard residue; d: D form. aThr = C[C@H](O)[C@H](N)C(=O)O
Form field: TGI (one value per entry).
parameter_measured: TGI

compound	result
O=[N+]([O-])c1ccc(-c2ccc(C3=Nn4c(CNc5ccccc5Cl)nnc4SC3)o2)cc1	> 100 µM
CN=c1sc2c(n1C)C(=O)c1ccccc1C2=O	10.1 µM
O=C1c2ccccc2C(=O)c2c(NC3CCCCC3)ccc(Nc3ccc(S(=O)(=O)O)cc3)c21	> 100 µM
COC(=O)C(C(=O)C(=O)Nc1c(Cl)cc([N+](=O)[O-])cc1Cl)c1csc(-n2nc(C3=CCCCC3)cc2-c2ccccc2)n1 (stereo not given)	> 100 µM
Oc1c(N2CCCCC2)cc(-c2cc(N3CCCCC3)c(O)c3ccccc23)c2ccccc12	> 100 µM
COc1ccc2ccccc2c1C1=NC(C)(C)CO1	> 100 µM
Cc1noc(NC(=O)Nc2ccccc2F)c1C#N	> 50.3 µM
Cc1ccc(OCC2OC(n3cnc4c(Cl)nc(Nc5cc(Cl)cc(Cl)c5)nc43)CC2Oc2ccc(C)cc2)cc1 (stereo not given)	> 100 µM
COc1cc(C(=O)/C=C/c2cccc(Nc3ccnc4cc(Cl)ccc34)c2)cc(OC)c1OC	2.45 µM
C(=Nc1nc(SCc2ccccc2)nc2[nH]ncc12)c1cccs1	> 100 µM
CC(C)C[C@@H]1NC(=O)[C@@H]2CCCN2C(=O)[C@@H]2CCCN2C(=O)[C@H](CC(C)C)NC(=O)[C@H](CO)NC(=O)[C@H](CCCCN)NC(=O)[C@H]([C@H](C)O)NC(=O)[C@@H]2CSSC[C@@H](NC1=O)C(=O)N[C@@H](Cc1ccccc1)C(=O)N1CCC[C@H]1C(=O)N[C@@H](CC(=O)O)C(=O)NCC(=O)N[C@@H](CCCN=C(N)N)C(=O)N2 (cyclo(C[aThr]KSLPPL[dC]FPDGR); disulfide 1-9)	> 50 µM
Cn1c(=O)c2nc3sc4c(n3c2n(C)c1=O)C(=O)c1ccccc1C4=O	> 66 µM
COc1cc(OC)c(OC)cc1/C=C/c1nc2ccccc2s1	> 100 µM
CCCCCCCCCCCCCCCCCCNc1ccn(C2OC(COP(=O)(O)OCC3OC(n4ccc(N)nc4=O)C(O)C3O)C(O)C2O)c(=O)n1 (stereo not given)	> 100 µM
Cc1c(C)c2c(c(N)c1C#N)C(=O)N(Cc1ccc(S(N)(=O)=O)cc1)C2=O	38.7 µM
CNCc1ccc(-c2cc(-c3nc(-c4ccc(S(=O)(=O)C(C)C)cc4)cnc3N)on2)cc1	36.8 µM
CC[C@H](C)[C@H](NC(=O)[C@H]1CCCCN1C)C(=O)N(C)[C@H](C[C@@H](OC(C)=O)c1nc(C(=O)NC23CC(C(=O)OC)(C2)C3)cs1)C(C)C	> 32.5 µM
O=c1cc(Nc2cccc(O)c2)[nH]c(=O)[nH]1	> 100 µM
CCOc1cnc(C(O)(c2ccccc2)c2ccccc2)o1	> 100 µM
Cc1cc2nc3c(C#N)c(-c4ccccc4)/c(=C\Nc4ccc(F)cc4)c(=O)n3c2cc1C	80.9 µM
CC(N)(CC(O)(C(F)(F)Cl)C(F)(F)Cl)C(=O)O (stereo not given)	> 10 µM
C=C(CN1CCc2[nH]c3ccc(F)cc3c2C1)c1ccc(C(=O)Nc2ccccc2N)cc1	21.7 µM
COc1cc2nc(Cl)nc(NS(=O)(=O)c3cc4ccccc4s3)c2cc1OC	48.6 µM
CCOC(=O)c1ccc(N=Nc2ccc(N(CCC#N)CCC#N)cc2C)cc1	> 100 µM
COC(=O)/C=C(\C(=O)OC)c1cc(C)c2cc(C(C)C)ccc(C)c1-2	> 100 µM
